Hey, just so you know, these numbers are from paper PMC8327961.

# assay_system: Smc5/6 octamer (hexamer plus Nse5/6) (Saccharomyces cerevisiae, UniProt Q08204;Q12749;Q07913;P38632;Q05541;P43124;Q03718;P40026 …)
# assay_overview: fluorescence anisotropy; ATPase buffer: 10 mM Hepes-KOH pH 7.5, 150 mM K-OAc, 2 mM MgCl2, 20% glycerol; anisotropy at 25 C; plasmid pulldown bound at room temperature, high-salt buffer
# condition_notes: protein: recombinant; tags: C-terminal 3C-Twin-Strep on Smc6; reconstitution with Nse5 C-terminal AviTag-3C-Twin-Strep; copies: 1;1;1;1;1;1;1;1; blunt
pKd: −log10 of the molar value.
quantity_measured: pKd

Prompt: Sample 40bpDNA (STI699/STI700) (dsDNA) DNA 1: TTAGTTGTTCGTAGTGCTCGTCTGGCTCTGGATTACCCGC DNA 2: GCGGGTAATCCAGAGCCAGACGAGCACTACGAACAACTAA — what was its pKd?
Response: ~7.00
